# TARGET ENTITY: Human FAAH (Homo sapiens, UniProt O00519)
# Construct: made in house
# Sequence (O00519 32-579 limits assumed): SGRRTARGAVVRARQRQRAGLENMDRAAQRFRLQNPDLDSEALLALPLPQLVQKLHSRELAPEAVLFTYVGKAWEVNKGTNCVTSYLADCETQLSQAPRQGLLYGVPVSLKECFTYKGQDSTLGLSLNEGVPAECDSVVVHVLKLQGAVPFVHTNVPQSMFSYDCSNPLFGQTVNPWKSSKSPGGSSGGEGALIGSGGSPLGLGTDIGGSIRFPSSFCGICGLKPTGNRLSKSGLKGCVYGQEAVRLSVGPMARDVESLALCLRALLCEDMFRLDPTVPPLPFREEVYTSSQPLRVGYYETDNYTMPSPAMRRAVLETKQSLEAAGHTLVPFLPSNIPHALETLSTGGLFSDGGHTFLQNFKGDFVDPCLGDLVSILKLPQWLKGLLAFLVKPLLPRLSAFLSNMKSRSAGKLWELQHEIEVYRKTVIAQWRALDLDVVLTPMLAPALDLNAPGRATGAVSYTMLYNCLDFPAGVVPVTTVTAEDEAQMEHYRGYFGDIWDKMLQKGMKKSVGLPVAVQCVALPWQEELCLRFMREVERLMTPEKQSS
# METHOD SUMMARY: FAAH assay (glutamate dehydrogenase-coupled, oleamide substrate, absorbance at 340 nm)
# Format: biochemical
# COND: irreversible inhibition potency
REPORTED METRIC: hFAAH KInact/K (M⁻¹ s⁻¹)

{"columns": ["MOLECULE", "hFAAH KInact/K, M⁻¹ s⁻¹"],
 "data": [
  ["CCCC(C)Oc1cccc(C=C2CCN(C(=O)Nc3cccnc3)CC2)c1 (stereo not drawn) [Example 35]", 2680],
  ["COc1cccc(C=C2CCN(C(=O)Nc3cccnc3)CC2)c1 [Example 2]", 973],
  ["Cc1cccc(COc2cccc(C=C3CCN(C(=O)Nc4cccnn4)CC3)c2)n1 [Example 67]", 370]
]}

[A] CC(C)Oc1cccc(C=C2CCN(C(=O)Nc3cccnc3)CC2)c1 [Example 37]
[B] O=C(Nc1cccnn1)N1CCC(=Cc2cccc(OCCN3CCCCCC3)c2)CC1 [Example 80]
[C] CCOc1cccc(C=C2CCN(C(=O)Nc3cccnc3)CC2)c1 [Example 1]
[D] O=C(Nc1cccnn1)N1CCC(=Cc2cccc(OCC3CCC(F)(F)CC3)c2)CC1 [Example 82]
Rank ascending by hFAAH KInact/K. Give the labels in the order specified.
B, A, C, D

[I] CC1CCCC(Oc2cccc(C=C3CCN(C(=O)Nc4cccnn4)CC3)c2)C1 (stereo not drawn) [Example 38]
[II] O=C(Nc1cccnn1)N1CCC(=Cc2cccc(OCC3CCOC3)c2)CC1 (stereo not drawn) [Example 53]
Lab note: record which item had the higher hFAAH KInact/K, I or II . Identify your selection by its label.
II
